Test system: SK-MEL-5
EXPERIMENT: NCI tumour cell line growth inhibition, 48 h
Active and inactive are the calls of the source. Cut-off read from the data, not from the text of the source: active = GI50 up to about 1.1 µM and inactive = higher.
READOUT_NAME: GI50

Would you please look over these solved cases?
MOLECULE | TESTED_ON | GI50
S=C(N/N=C\C=N/NC(=S)N1CCCCC1)N1CCCCC1 | SK-MEL-5 | 0.37 µM (active)
COc1ccc(/C=C2\CCC(Cc3ccccc3)(CN(C)C)C2=O)cc1 (centres undefined) | SK-MEL-5 | 20.8 µM (inactive)
COC(=O)c1c[nH]c(=O)[nH]c1=O | SK-MEL-5 | > 100 µM (inactive)
O=C(Oc1ccc2c(c1)CN(Cc1ccccc1)CO2)c1ccccc1 | SK-MEL-5 | 17.1 µM (inactive)
Cc1nnc([C@@]2(C)CC[C@H]3[C@@H](CCC4=CC(=O)CC[C@@]43C)[C@@H]2CC#N)o1 | SK-MEL-5 | > 100 µM (inactive)
COc1ccc2c(ccc3c(C(=O)NCCN(C)CCNC(=O)c4cn(C)c5c4ccc4cc(OC)ccc45)cn(C)c32)c1 | SK-MEL-5 | 1.63 µM (inactive)
COC(=O)C(CCS(=O)(=O)CC(=O)C(=O)Nc1cccc(C(C)=O)c1)C(=O)OC | SK-MEL-5 | > 100 µM (inactive)
Fc1cccc(Cl)c1/C=N\N=C1c2ccccc2-c2ccccc21 | SK-MEL-5 | > 100 µM (inactive)

Alright, here's another molecule for you.
get_value(item= CCOC(=O)c1cc2c([nH]1)c(OC(C)=O)cc1c2ccn1Cc1ccccc1 , readout=GI50) returns > 100 µM (inactive)

Ref: ChEMBL document CHEMBL1201862
